# Measured target: PI3Kδ (Homo sapiens, UniProt O00329, S253N)
# Sequence (O00329 whole entry S253N): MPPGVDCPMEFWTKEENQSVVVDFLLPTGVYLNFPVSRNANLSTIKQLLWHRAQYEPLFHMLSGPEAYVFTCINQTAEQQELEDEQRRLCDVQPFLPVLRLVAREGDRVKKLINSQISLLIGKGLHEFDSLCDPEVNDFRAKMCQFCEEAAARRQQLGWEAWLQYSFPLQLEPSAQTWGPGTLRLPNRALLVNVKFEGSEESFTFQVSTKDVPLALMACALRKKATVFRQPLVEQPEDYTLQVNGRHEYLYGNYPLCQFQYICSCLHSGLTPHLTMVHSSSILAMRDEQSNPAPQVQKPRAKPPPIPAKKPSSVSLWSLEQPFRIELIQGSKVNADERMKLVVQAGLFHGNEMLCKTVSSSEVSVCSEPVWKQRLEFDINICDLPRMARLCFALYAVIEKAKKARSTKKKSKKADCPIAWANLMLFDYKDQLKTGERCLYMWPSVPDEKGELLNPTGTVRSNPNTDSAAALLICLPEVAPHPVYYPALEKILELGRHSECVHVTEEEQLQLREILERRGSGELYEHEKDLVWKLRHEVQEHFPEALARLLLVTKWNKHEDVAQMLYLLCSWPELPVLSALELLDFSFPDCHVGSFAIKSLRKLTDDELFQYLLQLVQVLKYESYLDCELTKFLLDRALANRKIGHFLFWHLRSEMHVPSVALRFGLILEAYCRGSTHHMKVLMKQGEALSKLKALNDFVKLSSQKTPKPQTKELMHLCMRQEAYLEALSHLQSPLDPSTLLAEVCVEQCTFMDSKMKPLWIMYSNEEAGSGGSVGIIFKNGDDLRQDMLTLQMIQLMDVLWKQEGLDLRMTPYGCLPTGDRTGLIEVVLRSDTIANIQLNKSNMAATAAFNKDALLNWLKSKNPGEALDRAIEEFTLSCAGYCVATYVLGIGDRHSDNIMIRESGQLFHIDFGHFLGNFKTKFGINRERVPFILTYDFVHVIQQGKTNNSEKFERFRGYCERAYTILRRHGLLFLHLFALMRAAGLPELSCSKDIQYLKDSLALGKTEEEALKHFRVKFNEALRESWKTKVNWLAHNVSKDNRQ
# Sequence (P27986 whole entry partner): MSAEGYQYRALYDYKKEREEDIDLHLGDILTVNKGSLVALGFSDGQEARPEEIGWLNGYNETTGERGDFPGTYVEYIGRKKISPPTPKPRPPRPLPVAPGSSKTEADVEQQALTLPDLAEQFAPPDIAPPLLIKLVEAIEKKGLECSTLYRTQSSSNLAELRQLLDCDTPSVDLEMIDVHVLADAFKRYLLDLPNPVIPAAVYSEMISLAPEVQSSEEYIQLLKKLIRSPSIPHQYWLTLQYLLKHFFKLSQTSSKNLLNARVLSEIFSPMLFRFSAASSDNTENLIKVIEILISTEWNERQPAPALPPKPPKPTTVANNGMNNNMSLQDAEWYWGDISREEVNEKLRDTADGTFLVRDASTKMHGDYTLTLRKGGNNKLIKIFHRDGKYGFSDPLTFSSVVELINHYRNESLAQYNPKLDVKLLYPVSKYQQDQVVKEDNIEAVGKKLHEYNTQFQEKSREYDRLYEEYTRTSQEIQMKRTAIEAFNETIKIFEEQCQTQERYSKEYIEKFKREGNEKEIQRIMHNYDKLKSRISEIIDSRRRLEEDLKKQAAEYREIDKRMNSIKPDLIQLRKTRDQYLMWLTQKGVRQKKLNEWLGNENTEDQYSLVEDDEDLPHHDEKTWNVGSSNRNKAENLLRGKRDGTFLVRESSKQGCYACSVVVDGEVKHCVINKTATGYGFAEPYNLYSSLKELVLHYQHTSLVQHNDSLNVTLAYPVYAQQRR
# Procedure details: Biochemical assay of PI3K potency and selectivity using 20 μM ATP, Delta
# Set-up: His tag (pFastbac HTb vector) (N); FLAG; made in house; host or cells: Sf21 insect cells (baculovirus)
# Condition: 20 μM ATP; read-out: Delta IC50
Recorded endpoint: pIC50
In textbook form, pIC50 equals minus log to base ten of the concentration in mol/L.

Use the examples below as a reference point.
compound="CCOC(=O)Cn1c(CSc2ncnc3[nH]cnc23)nc2cccc(F)c2c1=O [Compound D-045]" measured_target="PI3Kδ (Homo sapiens, UniProt O00329, S253N)" observed_measurement=5.12
compound="O=c1c2cc(F)c(F)cc2nc(CSc2ncnc3[nH]cnc23)n1-c1ccccc1Cl [Compound D-027]" measured_target="PI3Kδ (Homo sapiens, UniProt O00329, S253N)" observed_measurement=6.22
compound="CC(=O)O.Nc1ncnc2c1ncn2Cc1nc2ccccc2c(=O)n1N1CCOCC1 [Compound D-051, acetate salt]" measured_target="PI3Kδ (Homo sapiens, UniProt O00329, S253N)" observed_measurement=5.48
compound="O=c1c2cc(F)ccc2nc(CSc2ncnc3[nH]cnc23)n1-c1ccccc1Cl [Compound D-028]" measured_target="PI3Kδ (Homo sapiens, UniProt O00329, S253N)" observed_measurement=6.74
compound="O=c1cc(N2CCOCC2)oc2c(-c3ccccc3)cccc12 [LY294002, reference compound]" measured_target="PI3Kδ (Homo sapiens, UniProt O00329, S253N)" observed_measurement=6.64

For the record Cc1cccc2nc(CSc3ncnc4[nH]cnc34)n(-c3ccccc3C(C)C)c(=O)c12 [Compound D-035] , what value of pIC50 is listed for PI3Kδ (Homo sapiens, UniProt O00329, S253N)?
7.30

Next up: O=c1c2cc(O)ccc2nc(CSc2ncnc3[nH]cnc23)n1-c1ccccc1Cl [Compound D-024]
5.59

Next up: Nc1ncnc2c1ncn2Cc1nc2cccc(F)c2c(=O)n1Cc1ccccc1 [Compound D-049]
6.00

* * *

# System: human B cells
# Procedure details: Antibody production by human B cells (IgG and IgM ELISA)
# Assay type: cell-based
# Condition: B-cell, IL-2 and PANSORBIN stimulation, FIG. 7, read-out: Half-maximal inhibition of IgM production
pIC50: −log10 of the molar value.
Recorded endpoint: pIC50

For the record "O=c1c2ccccc2nc(CSc2ncnc3[nH]cnc23)n1-c1ccccc1Cl" , what value of pIC50 is listed for human B cells?
~6.00

* * *

# Measured target: PI3Kδ (Homo sapiens, UniProt O00329, S253N)
# Procedure details: Biochemical assay of PI3K potency and selectivity using 20 μM ATP, Delta
# Parameters: His tag (pFastbac HTb vector) (N); FLAG; made in house; host or cells: Sf21 insect cells (baculovirus)
# Condition: 20 μM ATP; read-out: Delta IC50
Recorded endpoint: pIC50
In textbook form, pIC50 equals minus log to base ten of the concentration in mol/L.

Use the examples below as a reference point.
smiles_string=CCCCn1c(CSc2ncnc3[nH]cnc23)nc2ccccc2c1=O observed_measurement=6.22
smiles_string=O=c1c2c(F)cccc2nc(CSc2ncnc3[nH]cnc23)n1-c1ccccc1Cl observed_measurement=6.68
smiles_string=O=c1c2c(Cl)cccc2nc(CSc2ncnc3[nH]cnc23)n1-c1ccccc1F observed_measurement=7.00
smiles_string=COc1cc2nc(Cn3cnc4c(N)ncnc43)n(-c3ccccc3Cl)c(=O)c2cc1OC observed_measurement=4.17
smiles_string=Nc1ncnc2c1ncn2Cc1nc2cccc(F)c2c(=O)n1-c1ccccc1Cl observed_measurement=6.10

Look at this compound and give its reported pIC50. "O=c1c2ccccc2nc(CSc2ncnc3[nH]cnc23)n1-c1ccccc1"
6.32

Next up: "Nc1ncnc2c1ncn2Cc1nc2cccc(Cl)c2c(=O)n1-c1ccccc1Cl"
6.82

Next up: "O=c1c2ccc([N+](=O)[O-])cc2nc(CSc2ncnc3[nH]cnc23)n1-c1ccccc1Cl"
4.59
